Data origin, for the record: patent US9139577B2

target: MNK1 (Homo sapiens (Human), UniProt Q9BUB5); test: MNK1 in vitro kinase assay (Assay 3), Z'-LYTE; assay type: biochemical; conditions: compound concentration of 1 μM, read-out: MNK1 % INH
Sequence (Q9BUB5 other isoform, or with tags, fused parts or gaps): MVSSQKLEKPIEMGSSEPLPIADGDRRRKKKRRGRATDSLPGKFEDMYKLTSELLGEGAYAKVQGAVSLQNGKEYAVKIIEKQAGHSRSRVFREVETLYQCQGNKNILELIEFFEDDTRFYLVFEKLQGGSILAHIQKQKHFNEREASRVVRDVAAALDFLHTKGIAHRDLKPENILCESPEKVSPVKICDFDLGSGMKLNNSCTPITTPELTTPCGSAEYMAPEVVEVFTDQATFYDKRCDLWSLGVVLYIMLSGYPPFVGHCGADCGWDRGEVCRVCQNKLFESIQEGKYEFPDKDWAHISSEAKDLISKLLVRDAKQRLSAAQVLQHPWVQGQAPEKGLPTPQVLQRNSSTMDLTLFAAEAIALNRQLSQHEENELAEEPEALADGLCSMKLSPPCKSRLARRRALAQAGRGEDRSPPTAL
property: inhibition at 1 µM (%)
Respond numerically; units are % and should not be typed.

compound | inhibition at 1 µM, %
Cc1cc(N=S(C)(C)=O)cc2ncnc(Nc3ccc(F)cc3OCC3CCCCO3)c12 (stereo not shown) | 70
Cc1cc(N=S(C)(C)=O)cc2ncnc(Nc3ccc(F)cc3OCC(=O)N(C)C)c12 | 53
Cc1cc(N=S(C)(C)=O)cc2ncnc(Nc3ccc(F)cc3O[C@H](C)C(=O)N[C@@H]3CCC[C@@H]3O)c12 | 78

Now, please, on to the next compound.
Query string: Could you tell me which inhibition at 1 µM is on file for Cc1cc(N=S(C)(C)=O)cc2ncnc(Nc3ccc(F)cc3O[C@H](C)C(=O)NCC(C)(C)O)c12 ?
Result string: 93
